method: chemical genetic growth profiling, strain panel (AID 1159580);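 note: tested at 20 µM; growth read once vehicle control cultures reached saturation at 30 °C; 1 = growth at the plate median or of vehicle wells; lower values mean less growth of the strain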
assayContext: S. cerevisiae deletion strains, growth OD, locus YPL055C, strain LGE1
Out of some 5,500 compounds screened, about 2,000 (36%) were called active. Another 18% or so got no clear call; they are omitted. Cut-off read from the data, not from the text of the source: active = normalized growth mostly below about 0.91 (no sharp cut-off); inconclusive = no clear call, values can overlap the other calls; inactive = mostly above about 0.92. Some of the results follow.
Return exactly one item of 1 for active, 0 for inactive

Use the examples below as a reference point.
>>> classification("O=c1c(-c2ccc3c(c2)OCO3)coc2cc(O)ccc12")
0
>>> classification("O=S(=O)(O)c1cccc2cccc(Cl)c12")
0
>>> classification("Fc1ccc(C(c2ccc(F)cc2)N2CCN(C/C=C/c3ccccc3)CC2)cc1")
0
>>> classification("CC(=O)/C(=C\\N(C)C)Sc1nnc(C(F)(F)F)n1C")
0
>>> classification("COc1c2c(cc3occ(-c4ccc5c(c4)OCO5)c(=O)c13)OC(C)(C)C=C2")
0

Ask | For Cc1c2ccncc2c(C)c2c1[nH]c1ccccc12 , what call appears in the results of this test?
Reply | 1

Ask | For CC(=O)OC1CCC23C(=O)OC45CCC(C6=CC(=O)OC6)C4(C)CCC2C5CCC3(O)C1 (stereo not drawn) , what call appears in the results of this test?
Reply | 0

Ask | For C[N+](C)(C)CC=O , what call appears in the results of this test?
Reply | 0

Ask | For COC(=O)c1c(OC)ccc(N=CNO)c1OC , what call appears in the results of this test?
Reply | 0

----------
method: chemical genetic growth profiling, strain panel (AID 1159580);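 note: tested at 20 µM; growth read once vehicle control cultures reached saturation at 30 °C; 1 = growth at the plate median or of vehicle wells; lower values mean less growth of the strain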
assayContext: S. cerevisiae deletion strains, growth OD, locus YNL067W, strain RPL9B
Screen size: about 5,500 compounds; about 2,000 (36%) were called active. Roughly 18% stayed inconclusive and do not appear here. Cut-off read from the data, not from the text of the source: active = normalized growth mostly below about 0.91 (no sharp cut-off); inconclusive = no clear call, values can overlap the other calls; inactive = mostly above about 0.92. Some of the results follow.
Return exactly one item of active, inactive

Use the examples below as a reference point.
>>> classification("CC(C(=O)O)c1ccc(N2Cc3ccccc3C2=O)cc1 (stereo not drawn)")
"inactive"
>>> classification("Nc1ncnc2nc[nH]c12")
"inactive"
>>> classification("COc1cc(OC)cc(OC)c1")
"inactive"
>>> classification("COc1cc(OC)c2c(c1Cl)OC1(C2=O)C(O)=CC(=O)CC1C (stereo not drawn)")
"inactive"
>>> classification("COc1c(O)cc(O)cc1O")
"inactive"

Ask | For OCCN1CCN(CCCN2c3ccccc3Sc3ccc(Cl)cc32)CC1 , what call appears in the results of this test?
Reply | inactive

Ask | For COc1cc(O)c(C(=O)c2ccccc2)c(OC)c1 , what call appears in the results of this test?
Reply | inactive

Ask | For COc1cc2ccc(=O)oc2c2ccoc12 , what call appears in the results of this test?
Reply | inactive

Ask | For C[C@]12CCC3C(CC[C@H]4C[C@@H](O)CC[C@]34C)C1CCC2=O (stereo partly drawn) , what call appears in the results of this test?
Reply | active

Ask | For Cn1nnnc1SCC1=C(C(=O)O)N2C(=O)C(NC(=O)C(OC=O)c3ccccc3)C2SC1 (stereo not drawn) , what call appears in the results of this test?
Reply | inactive

Ask | For COc1cc2c(cc1-c1coc3c4c(c(OC)cc3c1=O)OC(C)(C)C=C4)OCO2 , what call appears in the results of this test?
Reply | inactive

----------
Overview of reported normalized growth across a group of compounds:
method: chemical genetic growth profiling, strain panel (AID 1159580);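 note: tested at 20 µM; growth read once vehicle control cultures reached saturation at 30 °C; 1 = growth at the plate median or of vehicle wells; lower values mean less growth of the strain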
assayContext: S. cerevisiae deletion strains, growth OD, locus YNL161W, strain CBK1, active compounds read low
Screen size: about 5,500 compounds; about 2,000 (36%) were called active. Inconclusive results (about 18%) are left out. The list shows a part of the results.
Write no unit; give the number alone.

Completed entries (count: 3):
>>> numericresult("CC(/C=C/c1ccccc1)=N/OC(=O)c1ccccc1Cl")
0.968
>>> numericresult("O=C1OC(Nc2ccccc2SCc2ccccc2Cl)c2ccccc21 (centres undefined)")
0.976
>>> numericresult("N/C(=N/OC(=O)c1ccccc1Cl)c1cccc(CS(=O)(=O)c2ccc(Cl)cc2)c1")
0.988

# input for lookup
# compound CSC(SC)=C(C#N)C(=O)c1ccccc1Cl ; its normalized growth = 0.661
